Sourced from patent US20210179715A1

# TARGET_OF_ASSAY: Parental NNT
# RUN_DESCRIPTION: BIAcore
ASSAY_METRIC: Kd (nM)
Please respond with the number in nM and leave the unit unwritten.

Requested read-out: Kd. Entry: LY6G6D (other) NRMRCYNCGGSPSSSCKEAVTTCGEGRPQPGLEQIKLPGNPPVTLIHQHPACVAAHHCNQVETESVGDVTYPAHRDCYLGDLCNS
0.43
